biological target: mu opiate receptor (MOR) (Rattus norvegicus, UniProt P33535); construct: from tissue; host or cells: striatum (membrane preparation); type: biochemical; conditions: [35S]GTPγS binding to Gαo in striatal membranes; compound 1 μM
Sequence (P33535 whole entry): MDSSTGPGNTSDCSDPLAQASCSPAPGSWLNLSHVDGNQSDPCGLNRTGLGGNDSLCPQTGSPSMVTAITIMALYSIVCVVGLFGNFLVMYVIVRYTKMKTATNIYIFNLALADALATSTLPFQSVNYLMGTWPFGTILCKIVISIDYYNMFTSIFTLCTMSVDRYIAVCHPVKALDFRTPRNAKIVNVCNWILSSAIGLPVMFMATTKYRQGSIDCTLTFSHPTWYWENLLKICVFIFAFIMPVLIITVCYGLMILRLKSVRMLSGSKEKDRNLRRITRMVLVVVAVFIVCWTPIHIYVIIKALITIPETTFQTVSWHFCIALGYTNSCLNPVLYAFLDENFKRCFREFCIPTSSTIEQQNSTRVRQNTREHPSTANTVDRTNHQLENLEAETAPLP
Measured Concentration of FLNA-Binding Compound as Agonist 1 μM values are reported for all entries that follow.
measured.attribute: Concentration of FLNA-Binding Compound as Agonist 1 μM (%)

INSERT INTO results (compound, tgt, value_measured) VALUES
  ('OC(COc1ccc(Br)c(F)c1)CN1CCCCC1 (centres unmarked)', 'mu opiate receptor (MOR) (Rattus norvegicus, UniProt P33535)', 244.3),
  ('COc1ccccc1C(=O)CC1c2c(cc3c(c2OC)OCO3)CC[N+]1(C)C (centres unmarked)', 'mu opiate receptor (MOR) (Rattus norvegicus, UniProt P33535)', 234.6),
  ('COc1ccccc1CCC(=O)CC1c2c(cc3c(c2OC)OCO3)CC[N+]1(C)C (centres unmarked)', 'mu opiate receptor (MOR) (Rattus norvegicus, UniProt P33535)', 193.1),
  ('CC1CN(CC(O)COc2ccccc2C(C)C)CC(C)O1 (centres unmarked)', 'mu opiate receptor (MOR) (Rattus norvegicus, UniProt P33535)', 206.5),
  ('COc1ccc(C(=O)CC2c3c(cc4c(c3OC)OCO4)CC[N+]2(C)C)cc1OC (centres unmarked)', 'mu opiate receptor (MOR) (Rattus norvegicus, UniProt P33535)', 233.3);
